Assay explanation: General toxicity study of bile salt (STC) by IN delivery: clinical pathology and organ histopathology (Example 2)
Measurement setup: rat, in vivo, NOAEL for bile salt (STC) at an IN delivery, relative dose, rats; 0.75 mg / 0.298 kg
Measurement label: NOAEL

Prompt: Supply measured NOAEL of C[C@H](CCC(=O)NCCS(=O)(=O)[O-])[C@H]1CC[C@H]2[C@@H]3[C@H](O)C[C@@H]4C[C@H](O)CC[C@]4(C)[C@H]3C[C@H](O)[C@]12C.[Na+] [STC, sodium taurocholate] in your reply.
Completion: ≥ 2.5 mg/kg
